# Tested on: MOLM1 and UCSD/AML1 (averaged)
# run.description: cell viability relative to DMSO control (POC); higher = less growth inhibition
# experimental.context: 1 µM; 72 h
Out of some 3,000 compounds screened, about 45 (2%) showed an effect of 50% or more. Shown is part of a subset that was picked to be rich in strong results.

>  <compound>
CCOc1ccc(/C=C2/Oc3ccc(C(=O)OC)cc3C2=O)cc1OCC

>  <readout.units>
%

>  <cell viability>
96.6

$$$$
>  <compound>
CCOc1cc(/C=C2\Oc3ccc(C(=O)OC)cc3C2=O)ccc1O

>  <readout.units>
%

>  <cell viability>
16.8

$$$$
>  <compound>
O=C(O)/C=C/c1c(Cl)cccc1Cl

>  <readout.units>
%

>  <cell viability>
94.6

$$$$
>  <compound>
O=[N+]([O-])C1=Cc2ccccc2OC1c1ccc2c(c1)OCO2 (stereo not given)

>  <readout.units>
%

>  <cell viability>
2.67

$$$$
>  <compound>
CCOC(=O)c1ccc2[nH]c(=O)c(Cc3ccccc3)c(O)c2c1

>  <readout.units>
%

>  <cell viability>
97.9

$$$$
